Test system: MUSK;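 also: KINOMEscan scanMAX binding as percent activity remaining versus control; lower means stronger binding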
Conditions: Compound Concentration (nM):1000
Listed here are molecules together with their documented Percent Control.
test-readout: Percent Control (%)

molecule="COc1ccc2c(-c3ccnc(Nc4cccc(OC(F)(F)F)c4)n3)cnn2n1 [GW810372X]" result_number=100
molecule="COC(=O)Nc1nc2ccc(Oc3ccc(NC(=O)Nc4cc(C(F)(F)F)ccc4F)cc3)cc2s1.Cl [GW693917A]" result_number=9.7
molecule="C/C(Nc1ccc(S(N)(=O)=O)cc1)=C1/C(=O)Nc2ccccc21 [GW335962X]" result_number=100
molecule="CN1CCN(C(=O)c2ccc(NC(=O)Nc3ccc(N(C)c4ccnc(Nc5ccc(CS(C)(=O)=O)cc5)n4)cc3)cc2)CC1.Cl [GW830263A]" result_number=11
molecule=CCc1ccc(Oc2nccc(-c3c(-c4ccc(F)cc4)ncn3C3CCNCC3)n2)cc1 result_number=100
molecule="NS(=O)(=O)c1ccc(N/N=C2\\C(=O)Nc3ccc(C(=O)NCc4ccncc4)cc32)cc1 [GW300657X]" result_number=83
molecule="COc1ccc(COc2ccc(Cc3cnc(N)nc3N)cc2OC)cc1 [GW632580X]" result_number=100
molecule=CCn1c(-c2nonc2N)nc2c(C#CC(C)(C)O)nc(OCCNC)cc21.Cl result_number=100
molecule="CCS(=O)(=O)c1ccc(OC)c(Nc2ncc(-c3cccc(OC)c3)o2)c1 [GW580509X]" result_number=100
molecule="Cl.O=C(Nc1ccc(Oc2ccc3[nH]c(NC(=O)c4ccco4)nc3c2)cc1)Nc1cc(C(F)(F)F)ccc1F [GW683134A]" result_number=5.6
molecule="CCS(=O)(=O)c1ccc(OC)c(Nc2ncc(-c3cccc(F)c3)o2)c1 [GW621970X]" result_number=100
molecule="Cl.c1ccc(Cc2nc3ccc(Nc4ncnc5ccccc45)cc3[nH]2)cc1 [GR269666A]" result_number=100
molecule="COc1cc2ncnc(Nc3ccc4c(cnn4Cc4ccccc4)c3)c2cc1OC.Cl [GW282449A]" result_number=100
molecule="COc1ccc2[nH]c3c4[nH]c5ccc(OC)cc5c4c4c(c3c2c1)C(=O)NC4=O [GW296115X]" result_number=83
molecule="CN(C)CCNC(=O)Nc1ccc(N(C)c2ccnc(Nc3ccc(CS(C)(=O)=O)cc3)n2)cc1.Cl [GW830900A]" result_number=78
molecule="COc1cccc(-n2ncc3c(N/N=C/c4ccncc4)ncnc32)c1 [GW784752X]" result_number=100
molecule="O=C1Nc2ccc(C(=O)c3ccco3)cc2C1=Cc1cc(Cl)c(O)c(Cl)c1 [GW406108X]" result_number=100

Hello, the source for this data is paper PMC7826789, in case you need it.
